Parameter IL-1β IC50: see the listing below.
target: human IL-1β (human, UniProt P01584 117-269); test: cell-based or functional assay
Enter your answer as a number in pM; do not include the unit.

Examples with their reported IL-1β IC50 follow.
ABT2-108-620x/ABT1-95-A3 hu IgG1/K mut (234; 235) (bispecific antibody, V domains shown, hu IgG1/K mut (234)) VH: EVQLLESGGGLVQPGGSLRLSCAASGFTFAEESWMWVRQAPGKGLEWVSRIGQDGKNTYYREDVKGRFTISRDNSKNTLYLQMNSLRAEDTAVYYCAKYTGRIMGHHLFDYWGQGTLVTVSS VL: DIQMTQSPSSLSASVGDRVTITCRASKPGVRNMRWYQQKPGKAPKLLIYSVSYLEPGVPSRFSGSGSGTDFTLTISSLQPEDFATYHCLQGYRWPPTFGQGTKVEIKR	7.3
ABT2-108-620x/ABT1-122-750MT hu IgG1 wt (bispecific antibody, V domains shown) VH: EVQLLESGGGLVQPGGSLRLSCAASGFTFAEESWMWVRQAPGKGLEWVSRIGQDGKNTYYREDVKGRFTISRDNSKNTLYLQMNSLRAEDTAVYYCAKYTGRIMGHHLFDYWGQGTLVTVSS VL: DIQMTQSPSSLSASVGDRVTITCSASQHIWTEMSWYQQKPGKTPKLLIYGSASRQKGVPSRFSGSGSGTDFTLTISSLQPEDFATYYCKQFAYFPNTFGQGTKVEIKR	4.82
ABT2-108-617/ABT1-122 hu IgG1/K wt (bispecific antibody, V domains shown) VH: EVQLLESGGGLVQPGGSLRLSCAASGFTFAEYTMMWVRQAPGKGLEWVSRIGQDGKNTYYADSVKGRFTISRDNSKNTLYLQMNSLRAEDTAVYYCAKYTGRIFTHHLFDYWGQGTLVTVSS VL: DIQMTQSPSSLSASVGDRVTITCRASQPIWTELNWYQQKPGKAPKLLIYGSSSLQSGVPRFSGSGSGTDFTLTISSLQPEDFATYYCQQFAYFPATFGQGTKVEIKR	50

Request: Query: IL-1β IC50; subject: ABT2-65-201/ABT1-95-15 hu IgG1/K mut (234; 235) (bispecific antibody, V domains shown) VH: EVQLLESGGGLVQPGGSLRLSCVASGFTFEDYQMGWVRQAPGKGLEWVSSISAMGRRTYYADSVKGRFTISRDNSKNTLYLQMNSLRAEDTAVYYCAQNLVRLGRSRWMFDYWGQGTLVTVSS VL: DIQMTQSPSSLSASVGDRVTITCRASQPIVRNLRWYQQKPGKAPKLLIYSSSYLEPGVPSRFSGSGSGTDFTLTISSLQPEDFATYHCQQGYRWPVTFGQGTKVEIKR
Response: 30

Request: Entry ABT2-65-166/ABT1-95-15 hu IgG1/K wt (bispecific antibody, V domains shown) VH: EVQLLESGGGLVQPGGSLRLSCAASGFTFEDYQMGWVRQAPGKGLEWVSSISAMGGRTYYADSVKGRFTISRDNSKNTLYLQMNSLRAEDTAVYYCAQNLVRLGRSRWMFDYWGQGTLVTVSS VL: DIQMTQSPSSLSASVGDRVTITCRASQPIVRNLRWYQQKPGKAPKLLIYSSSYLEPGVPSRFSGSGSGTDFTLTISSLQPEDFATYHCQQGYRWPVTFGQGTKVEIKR has what IL-1β IC50?
Response: 130
